tested on: RAW264.7; assay: Antiinflammatory activity in mouse RAW264.7 cells assessed as inhibition of LPS-induced NO production preincubated for 1 hrs followed by LPS stimulation and measured after 24 hrs by Griess reagent based spectrophotometrical method; type: functional, cell-based
Here, each record is paired with measured IC50 data.
EXPERIMENTAL READOUT: IC50 (µM)

COc1c2cc(c(O)c1OC)CCCC[C@@H](O)CCc1ccc(O)c-2c1 = 7.5
COc1cc2cc(c1O)-c1cc(ccc1O)CCC(=O)CCCC2 = 13
COc1c2cc(c(OC)c1OC)-c1cc(ccc1O)CC(O)C(=O)CCCC2 (stereo not given) = 46.9
N=C(NCCC[C@H](N)C(=O)O)N[N+](=O)[O-] = 39.5
COc1c2cc(c(O)c1OC)CCCCC(=O)CCc1ccc(O)c-2c1 = 1
